molecular target: human B7H3 ECD-His (human) (UniProt Q5ZPR3); test: ForteBio BLI, antibody on AHQ sensor, 60 nM antigen, 1:1 model
quantity.kind: Kd (nM)
Report as a plain number; the unit nM is understood.

>>> meas_value("anti-B7H3 antibody 2B8 (antibody, V domains shown) VH: QVQLQQSGPELVRPGVSVKISCKVSGYTFTDGAMHWVKRSHAKSLEWIGIINTNSGNTNYNQKFQGKATMTVDKSSSTAYMELARLTSEDSAIYYCARGVFYYGYGAWFAYWGQGTLVTVSA VL: DVQITQSPSYLTASPGETIIINCRASKTISNYLAWYQEKPGKTNKLLIYSGSTLQSGIPSRFSGSGSDTDFTLTISSLEPEDFAMYYCQQHHEYPLTFGAGTKLELKR")
0.323

API: the following record is the query input.
Q) Recall and state the measured Kd for huM30 (antibody, from another filing, V domains shown) VH: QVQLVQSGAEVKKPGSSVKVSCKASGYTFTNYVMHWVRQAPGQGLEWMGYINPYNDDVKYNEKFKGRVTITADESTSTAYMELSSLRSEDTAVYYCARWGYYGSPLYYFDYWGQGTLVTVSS VL: EIVLTQSPATLSLSPGERATLSCRASSRLIYMHWYQQKPGQAPRPLIYATSNLASGIPARFSGSGSGTDFTLTISSLEPEDFAVYYCQQWNSNPPTFGQGTKVEIK .
A) 0.346
